molecular target: CA IX (Homo sapiens); experiment: biochemical; conditions: library compounds with IDs A… and B…; from observed Ki (nM); read-out: pKi (exp.) (converted)
observation.type: Ki (nM)
Give bare numbers, in nM.

INSERT INTO assay_data (compound, observation_type, units_symbol, recorded_result) VALUES
  ('Oc1cc(O)c2c(c1)O[C@@H](c1ccc(O)c(O)c1)[C@H](O)C2 [B0819]', 'Ki', 'nM', 5040),
  ('O=C(N/N=C\c1cccc(Br)c1)Nc1nnc(S)s1 [B0891]', 'Ki', 'nM', 10100),
  ('COC(=O)[C@H]1C[C@H](OS(N)(=O)=O)CN1S(=O)(=O)[C@H]1O[C@H](COC(C)=O)[C@@H](OC(C)=O)[C@H](OC(C)=O)[C@H]1OC(C)=O [B0015]', 'Ki', 'nM', 2);

Each compound below has a reported value. Please supply its Ki.
1. N#C[C@H]1C(COc2ccc(S(N)(=O)=O)cc2)=NON1O [A0707]
2. CC(C)CCC[C@@H](C)[C@H]1CC[C@@H]2[C@@H]1CC[C@H]1[C@H]2CC=C2C[C@@H](OS(N)(=O)=O)CC[C@@]21C [A2177]
3. COc1cccc(/C=C\C(=O)C[C@@H]2O[C@@H](COC(C)=O)[C@@H](OC(C)=O)[C@@H](OC(C)=O)[C@H]2OC(C)=O)c1 [B0574]
4. NS(=O)(=O)c1ccc(N2C(=O)/C(=C\c3coc4ccccc4c3=O)N=C2c2ccccc2)cc1 [B0301]
5. CC(=O)OC[C@H]1O[C@H](CC(=O)/C=C\c2ccc(O)cc2)[C@@H](OC(C)=O)[C@H](OC(C)=O)[C@@H]1OC(C)=O [B0789]

Response given:
11.3
1000
92.9
23
2900
